# key: entry, value: residual activity
# tested on: Serine/threonine-protein kinase MARK1 (Homo sapiens)
# measurement parameters: at 10 µM

[
  {
    "compound": "Cc1cncc2cccc(S(=O)(=O)N3CCCN(C(=O)CN)C[C@H]3C)c12",
    "tested on": "Serine/threonine-protein kinase MARK1 (Homo sapiens)",
    "residual activity [%]": 43
  },
  {
    "compound": "CC#CC(=O)Nc1cc2c(Nc3ccc(F)c(Cl)c3)ncnc2cn1",
    "tested on": "Serine/threonine-protein kinase MARK1 (Homo sapiens)",
    "residual activity [%]": 83
  },
  {
    "compound": "CN(C)c1ccc(/C=C2\\C(=O)Nc3ccccc32)cc1",
    "tested on": "Serine/threonine-protein kinase MARK1 (Homo sapiens)",
    "residual activity [%]": 49
  },
  {
    "compound": "NC(=O)c1ccc2[nH]c(-c3ccc(Oc4ccc(Cl)cc4)cc3)nc2c1",
    "tested on": "Serine/threonine-protein kinase MARK1 (Homo sapiens)",
    "residual activity [%]": 70
  },
  {
    "compound": "CC(=O)O/N=C1\\C(=C2\\C(=O)Nc3cc(Br)ccc32)Nc2ccccc21",
    "tested on": "Serine/threonine-protein kinase MARK1 (Homo sapiens)",
    "residual activity [%]": 39
  },
  {
    "compound": "CC[n+]1c(/C=C/N(C)c2ccccc2)n(-c2ccccc2)c2ccc(-c3nc4ccccc4s3)cc21",
    "tested on": "Serine/threonine-protein kinase MARK1 (Homo sapiens)",
    "residual activity [%]": 111
  },
  {
    "compound": "COc1cc2ncnc(Nc3ccc(O)c(Br)c3)c2cc1OC",
    "tested on": "Serine/threonine-protein kinase MARK1 (Homo sapiens)",
    "residual activity [%]": 54
  },
  {
    "compound": "c1ccc(-c2n[nH]c3c2oc2ccccc23)cc1",
    "tested on": "Serine/threonine-protein kinase MARK1 (Homo sapiens)",
    "residual activity [%]": 44
  },
  {
    "compound": "Cc1cc2ncc(-c3ccccc3)nc2cc1C",
    "tested on": "Serine/threonine-protein kinase MARK1 (Homo sapiens)",
    "residual activity [%]": 90
  },
  {
    "compound": "O=c1cc(-c2cccc3c2Sc2ccccc2S3)oc(N2CCOCC2)c1",
    "tested on": "Serine/threonine-protein kinase MARK1 (Homo sapiens)",
    "residual activity [%]": 96
  },
  {
    "compound": "Cn1cc(/C=C2\\C(=O)Nc3ccc(S(N)(=O)=O)cc32)c2ccccc21",
    "tested on": "Serine/threonine-protein kinase MARK1 (Homo sapiens)",
    "residual activity [%]": 7
  },
  {
    "compound": "Oc1ccc(-c2nc(-c3ccc(F)cc3)c(-c3ccncc3)[nH]2)cc1",
    "tested on": "Serine/threonine-protein kinase MARK1 (Homo sapiens)",
    "residual activity [%]": 97
  },
  {
    "compound": "O=C1Nc2ccccc2/C1=C1/Nc2ccccc2/C1=N\\OCCC(O)CO (stereo not drawn)",
    "tested on": "Serine/threonine-protein kinase MARK1 (Homo sapiens)",
    "residual activity [%]": 8
  },
  {
    "compound": "COc1ccc(C(=O)Nc2sc3c(c2C(N)=O)CCCC3)cc1OC",
    "tested on": "Serine/threonine-protein kinase MARK1 (Homo sapiens)",
    "residual activity [%]": 81
  },
  {
    "compound": "COc1ccc(CNc2nc(N(CCO)CCO)nc3c2ncn3C(C)C)cc1",
    "tested on": "Serine/threonine-protein kinase MARK1 (Homo sapiens)",
    "residual activity [%]": 72
  },
  {
    "compound": "Oc1ccc(Nc2nc(-c3ccc(Cl)cc3)cs2)cc1",
    "tested on": "Serine/threonine-protein kinase MARK1 (Homo sapiens)",
    "residual activity [%]": 93
  },
  {
    "compound": "Cc1ccc(S(=O)(=O)/C=C/C#N)cc1",
    "tested on": "Serine/threonine-protein kinase MARK1 (Homo sapiens)",
    "residual activity [%]": 89
  },
  {
    "compound": "Ic1cccc(CSc2nnc(-c3ccncc3)o2)c1",
    "tested on": "Serine/threonine-protein kinase MARK1 (Homo sapiens)",
    "residual activity [%]": 5
  },
  {
    "compound": "O=C1NC(=O)c2cc(Nc3ccc(F)cc3)c(Nc3ccc(F)cc3)cc21",
    "tested on": "Serine/threonine-protein kinase MARK1 (Homo sapiens)",
    "residual activity [%]": 75
  },
  {
    "compound": "CCC(=O)Nc1ccc2ncnc(Nc3cccc(Br)c3)c2c1",
    "tested on": "Serine/threonine-protein kinase MARK1 (Homo sapiens)",
    "residual activity [%]": 90
  },
  {
    "compound": "COc1cccc(-c2cc(=O)c3ccccc3o2)c1N",
    "tested on": "Serine/threonine-protein kinase MARK1 (Homo sapiens)",
    "residual activity [%]": 85
  },
  {
    "compound": "N#CCCc1ccc2c(c1)-c1[nH]c3ccc([N+](=O)[O-])cc3c1CC(=O)N2",
    "tested on": "Serine/threonine-protein kinase MARK1 (Homo sapiens)",
    "residual activity [%]": 9
  },
  {
    "compound": "O=C(O)c1ccc2c3c1cccc3c(=O)n1c3ccccc3nc21",
    "tested on": "Serine/threonine-protein kinase MARK1 (Homo sapiens)",
    "residual activity [%]": 35
  }
]
